B1: TPR t1 (parent)
chain: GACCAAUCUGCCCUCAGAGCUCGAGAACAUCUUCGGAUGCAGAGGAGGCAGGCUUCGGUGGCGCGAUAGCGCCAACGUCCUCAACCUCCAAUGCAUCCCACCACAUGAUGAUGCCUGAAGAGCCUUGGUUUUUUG

Variants of: B1
EXPERIMENT: polymerase ribozyme fitness, log enrichment relative to wild type (log ratio); higher = more active; in vitro selection for triplet polymerase activity
Please mark YES if the recorded polymerase ribozyme fitness (log ratio) is equal to or greater than -2, and NO if it falls below.

{"MUTANT ID": "G57C C70U", "CAT": "YES"}
{"MUTANT ID": "A24U G69U C114G", "CAT": "NO"}
{"MUTANT ID": "C13U G93A C114G", "CAT": "NO"}
{"MUTANT ID": "C11A A46U", "CAT": "NO"}
{"MUTANT ID": "A29U C72U C98U A111C", "CAT": "NO"}
{"MUTANT ID": "C73A C102U G128C", "CAT": "NO"}
{"MUTANT ID": "G69C G135A", "CAT": "YES"}
{"MUTANT ID": "G71A U106G", "CAT": "NO"}
{"MUTANT ID": "C12A A41G G61U G117C G135C", "CAT": "NO"}
{"MUTANT ID": "C53A G63A", "CAT": "YES"}
{"MUTANT ID": "A27C G44C C73G", "CAT": "NO"}
{"MUTANT ID": "C70U U131C", "CAT": "YES"}
{"MUTANT ID": "U55A C114U", "CAT": "NO"}
{"MUTANT ID": "C11A A37U G63C U116G", "CAT": "NO"}
{"MUTANT ID": "C94A A111U", "CAT": "YES"}
{"MUTANT ID": "A41U C123G", "CAT": "YES"}
{"MUTANT ID": "C4G C80U", "CAT": "YES"}
{"MUTANT ID": "A103G G110U", "CAT": "NO"}
{"MUTANT ID": "A41G A50C G77A U116C", "CAT": "NO"}
{"MUTANT ID": "C12U G39C C64U A84U", "CAT": "YES"}
{"MUTANT ID": "G48C U78C G120C C124G", "CAT": "YES"}
{"MUTANT ID": "C40G G127C", "CAT": "YES"}
{"MUTANT ID": "C13U A50U G52C C53A U87A", "CAT": "NO"}
{"MUTANT ID": "C85G G113C", "CAT": "NO"}
{"MUTANT ID": "G77A C82A G110A C123A", "CAT": "NO"}
{"MUTANT ID": "A29G C123A", "CAT": "YES"}
{"MUTANT ID": "U96A U106A", "CAT": "YES"}
{"MUTANT ID": "C3G C8G", "CAT": "YES"}
{"MUTANT ID": "A37U A83U U96A C124U U131A", "CAT": "YES"}
{"MUTANT ID": "G10A A18C G122A C123G", "CAT": "YES"}
{"MUTANT ID": "U7A C11A C40U G93C A119U G122U", "CAT": "YES"}
{"MUTANT ID": "A26G G60C C86G", "CAT": "NO"}
{"MUTANT ID": "U7G C70U G93C", "CAT": "YES"}
{"MUTANT ID": "C11U A74G C89G", "CAT": "NO"}
{"MUTANT ID": "U30C G63A", "CAT": "NO"}
{"MUTANT ID": "C4G G113U", "CAT": "NO"}
{"MUTANT ID": "C20A U59A U78A G117A", "CAT": "NO"}
{"MUTANT ID": "U38C G57A G69U U96A", "CAT": "NO"}
{"MUTANT ID": "A5G C104A G113C", "CAT": "NO"}
{"MUTANT ID": "G45U A46C G127C", "CAT": "NO"}
{"MUTANT ID": "U9G G10U C94U", "CAT": "YES"}
{"MUTANT ID": "C4G C12U C97A U112C", "CAT": "NO"}
{"MUTANT ID": "U7G U129A", "CAT": "YES"}
{"MUTANT ID": "C62U C85A C101G", "CAT": "NO"}
{"MUTANT ID": "A27U C124U", "CAT": "YES"}
